Biological target: T1, human Dectin-1 (biosensor tests of Tables 3, 4A and 9; construct not stated) (human, UniProt Q9BXN2 66-247, limits assumed)
T1 construct: also called hDectin-1
T1 sequence (looked up): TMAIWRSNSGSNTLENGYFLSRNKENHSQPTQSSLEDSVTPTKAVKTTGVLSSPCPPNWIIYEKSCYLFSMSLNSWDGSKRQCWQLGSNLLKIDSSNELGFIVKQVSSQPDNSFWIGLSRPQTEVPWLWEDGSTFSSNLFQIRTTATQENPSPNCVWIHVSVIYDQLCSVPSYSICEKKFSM
Assay: Octet response
Overview of reported X = 350 across a group of binders:
quantity_measured: X = 350

binder | quantity_measured | result
2M24A.1.22 (Fab, V domains shown, Fab; also called 2M24.1.22) VH: QVQLVQSGAEVKKPGASVKVSCKSSGYTFTDYYIHWVRQAPGQGLEWMGWINPNSGDTNYAQKFQGRITMTRDTSISTAYLELSRLRSDDTAVFYCARNSGSYSFGAWGQGTLVTVSS VL: DIQMTQSPSSVSASVGDRVTITCRASQGISSWLAWYQQKPGKAPKLLIFGASSLQSGVPSRFSGSGSGTDFTLTVSSLQPEDFATYYCQQAYSFPFTFGPGTKVDIE | X = 350 | 0.112
2M24A.1.23 (Fab, V domains shown, Fab; also called 2M24.1.23) VH: QVQLVQSGAEVKKPGASVKVSCKSSGYTFTDYYIHWVRQAPGQGLEWMGWINPNSGDTNYAQKFQGRITMTRDTSISTAYLELSRLRSDDTAVFYCARNSGSYSFGYWGQGTLVTVSS VL: DIQMTQSPSSVSASVGDRVTITCRASQGISSWLAWYQQKPGKAPKLLIFGASSLQSGVPSRFSGSGSGTDFTLTVSSLQPEDFATYYCAQAYSFPFTFGPGTKVDIE | X = 350 | 0.104
2M24A.1.24 (Fab, V domains shown, Fab; also called 2M24.1.24) VH: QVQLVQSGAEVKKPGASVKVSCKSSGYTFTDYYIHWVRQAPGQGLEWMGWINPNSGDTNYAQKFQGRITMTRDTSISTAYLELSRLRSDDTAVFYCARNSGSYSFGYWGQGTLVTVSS VL: DIQMTQSPSSVSASVGDRVTITCRASQGISSWLAWYQQKPGKAPKLLIFGASSLQSGVPSRFSGSGSGTDFTLTVSSLQPEDFATYYCQAAYSFPFTFGPGTKVDIE | X = 350 | 0.073
2M24A.1.18 (Fab, V domains shown, Fab; also called 2M24.1.18) VH: QVQLVQSGAEVKKPGASVKVSCKSSGYTFTDYYIHWVRQAPGQGLEWMGWINPNSGDTNYAQKFQGRITMTRDTSISTAYLELSRLRSDDTAVFYCARNSGAYSFGYWGQGTLVTVSS VL: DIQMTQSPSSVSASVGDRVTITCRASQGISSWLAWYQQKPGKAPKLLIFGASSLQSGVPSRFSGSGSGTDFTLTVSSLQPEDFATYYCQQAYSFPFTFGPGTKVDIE | X = 350 | 0.124
2M24A.1.19 (Fab, V domains shown, Fab; also called 2M24.1.19) VH: QVQLVQSGAEVKKPGASVKVSCKSSGYTFTDYYIHWVRQAPGQGLEWMGWINPNSGDTNYAQKFQGRITMTRDTSISTAYLELSRLRSDDTAVFYCARNSGSYAFGYWGQGTLVTVSS VL: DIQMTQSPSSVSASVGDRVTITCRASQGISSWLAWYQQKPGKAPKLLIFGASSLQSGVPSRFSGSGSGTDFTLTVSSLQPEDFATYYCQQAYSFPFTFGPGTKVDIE | X = 350 | 0.0983
